Test system: CYP3A4
Test: CLZD_CYP3A4: Change in expression of CYP3A4 (primary human hepatocytes)
Format: cell-based
Settings: 24 hr, scale not given, looks like -log10 of molar active concentration, 0 = no activity
Assay readout: CLZD_CYP3A4_24
Form field (numeric): enter value without unit.

Quick one: CLZD_CYP3A4_24 of CCOC(=O)C(Cl)Cc1cc(-n2nc(C)n(C(F)F)c2=O)c(F)cc1Cl (stereo not shown) [r54] ? 4.919

Can you look up the measured CLZD_CYP3A4_24 of COc1nc(C)nc(NC(=O)NS(=O)(=O)c2ccccc2Cl)n1 [r63] for me? 0

Given the compound COc1nc(C)nc(NC(=O)NS(=O)(=O)c2ccccc2Cl)n1 [r62] , what is its reported CLZD_CYP3A4_24? 0

Please look up its CLZD_CYP3A4_24: Cc1c(COC(=O)C2C(/C=C(\Cl)C(F)(F)F)C2(C)C)cccc1-c1ccccc1 (stereo not shown) [r39] 4.923

====

System: CYP1A2
Experiment: CLZD_CYP1A2: Change in expression of CYP1A2 (primary human hepatocytes)
Assay type: cell-based
Details: 24 hr, scale not given, looks like -log10 of molar active concentration, 0 = no activity
Assay readout: CLZD_CYP1A2_24
Lab note: record just the number, no unit beside it.

// lookup CLZD_CYP1A2_24 for COc1nc(C)nc(NC(=O)NS(=O)(=O)c2ccccc2Cl)n1 [r63] 0

Any idea what its CLZD_CYP1A2_24 is? The molecule is O=C1C2CC=CCC2C(=O)N1SC(Cl)(Cl)Cl (stereo not shown) [r51] 0

Entry CC(C)N1C(=O)c2ccccc2NS1(=O)=O [r37] : reported CLZD_CYP1A2_24 = ? 0

What measured CLZD_CYP1A2_24 goes with COC(=O)c1ccccc1CS(=O)(=O)NC(=O)Nc1nc(OC)cc(OC)n1 [r33] ? 0

# lookup: CLZD_CYP1A2_24 of CC(C)N1C(=O)N(c2ccccc2)CS/C1=N\C(C)(C)C [r45] 0

Query: CLZD_CYP1A2_24; subject: CCSC(=O)N(CC(C)C)CC(C)C [r49] 0

# get_value(readout='CLZD_CYP1A2_24', item= CCC(C)Nc1c([N+](=O)[O-])cc(C(C)(C)C)cc1[N+](=O)[O-] (stereo not shown) [r48] ) 0

Param item = CC(C)OC(=O)Nc1cccc(Cl)c1 [r59] ; retrieve measured CLZD_CYP1A2_24. 5.159

// returns reported CLZD_CYP1A2_24 for input CCC(C)n1c(=O)[nH]c(C)c(Br)c1=O (stereo not shown) [r43] 4.966

# query: CLZD_CYP1A2_24 of entry Nc1cnn(-c2ccccc2)c(=O)c1Cl [r56] 4.955

I am curious: what CLZD_CYP1A2_24 value has been reported for CC(C)(c1ccc(O)cc1)c1ccc(O)cc1 [r40] ? 0

Can you share its CLZD_CYP1A2_24? I mean this molecule: N#Cc1cc(Br)c(O)c(Br)c1 [r44] 0

Would you kindly share the measured CLZD_CYP1A2_24 for CCCCOCN(C(=O)CCl)c1c(CC)cccc1CC [r46] ? 0

Item CC1=C(C(=O)Nc2ccccc2)SCCO1 [r53] has what recorded CLZD_CYP1A2_24? 4.782

Record request: CLZD_CYP1A2_24 value, item O=C(Nc1ccccc1-c1ccc(Cl)cc1)c1cccnc1Cl [r42] 4.876

# lookup: CLZD_CYP1A2_24 of Cc1c(COC(=O)C2C(/C=C(\Cl)C(F)(F)F)C2(C)C)cccc1-c1ccccc1 (stereo not shown) [r39] 0

Need CLZD_CYP1A2_24 of COc1ccc(-c2ccccc2)cc1NNC(=O)OC(C)C [r38] , thanks. 5.768

Which CLZD_CYP1A2_24 value is on record for N#Cc1c(Cl)c(Cl)c(Cl)c(C#N)c1Cl [r58] ? 0

For the molecule CCOC(=O)C(Cl)Cc1cc(-n2nc(C)n(C(F)F)c2=O)c(F)cc1Cl (stereo not shown) [r54] , what CLZD_CYP1A2_24 is on record? 0

Using the record for COc1cc(Cl)c(OC)cc1Cl [r57] , report its CLZD_CYP1A2_24. 0

Which measured CLZD_CYP1A2_24 value corresponds to COc1nc(C)nc(NC(=O)NS(=O)(=O)c2ccccc2Cl)n1 [r62] ? 0

# CLZD_CYP1A2_24 lookup, item Cc1ccccc1CO[C@@H]1C[C@@]2(C(C)C)CC[C@]1(C)O2 [r64] 5.157
